Target: MDM2 (Homo sapiens)
Construct: residues 1–110
Assay: competitive fluorescence polarisation, % inhibition at […]
Conditions: read-out: Protein binding inhibition at 1 μM(%) ^a / MDM2
QUANTITY_NAME: inhibition at 1 µM
Respond with the figure and its unit, in that order.

Known results for molecules:
COC(=C1C(=O)Nc2cc(F)ccc21)c1ccccc1 [H5] : 56.8%
O=C1Nc2cc(Cl)ccc2C1=C(c1ccccc1)N1CCCC1 [H7] : 52.6%
COC(=C1C(=O)Nc2cc(Cl)ccc21)c1ccccc1 [H3] : 72.8%

Next molecule, inhibition at 1 µM to be filled in.
In: Hi! What's the reported inhibition at 1 µM for COC(=C1C(=O)Nc2cc(Cl)c(F)cc21)c1ccccc1 [H6] on MDM2 (Homo sapiens)?
Out: 50.3%
